Test: Potency code of Table 2 (assay not stated)
result type: Potency code

// worked examples, Potency code included
smiles string	result type	experimental result
Cc1[nH]nc(-c2ccc(OCCc3ccc(Cl)cc3)cc2O)c1Oc1ccccc1	Potency code	+ (>40 +)
Cn1nc(C(F)(F)F)cc1-c1ccc(NC(=O)c2ccc(Cl)cc2)cc1O	Potency code	+ (>40 +)
CCCCOc1ccc(-c2cc(C(F)(F)F)nn2C)c(O)c1-c1cc(C(F)(F)F)cc(C(F)(F)F)c1	Potency code	+ (>40 +)
COc1cccc(-c2c(-c3ccc(OCc4ccc(Cl)cc4)cc3O)nn(C)c2C)c1	Potency code	+ (>40 +)
CC(C)CCOc1ccc(-c2cc(C(F)(F)F)[nH]n2)c(O)c1-c1cncc(C(F)(F)F)c1	Potency code	+ (>40 +)

Incoming: Requested read-out: Potency code. Entry: Oc1cc(OCc2ccncc2)ccc1-c1n[nH]cc1Oc1ccccc1
Outgoing: + (>40 +)

Incoming: Cool, now COc1ccc(CCOc2ccc(-c3cc(C(F)(F)F)n(C)n3)c(O)c2-c2cc(C(F)(F)F)cc(C(F)(F)F)c2)cc1
Outgoing: + (>40 +)

* * *

Assay: Potency code of Table 2 (assay not stated)
result type: Potency code

smiles string	result type	experimental result
Cn1nc(C(F)(F)F)cc1-c1ccc(OCc2ccc(Cl)cc2)c(-c2cccc(C(N)=O)c2)c1O	Potency code	+ (>40 +)
CCc1c(-c2ccccc2)c(-c2ccc(OCc3ccc(Cl)cc3)cc2O)nn1C	Potency code	+ (>40 +)
CCc1ccc(Oc2c(-c3ccc(OCc4ccc(Cl)cc4)cc3O)n[nH]c2C(F)(F)F)cc1	Potency code	++ (30-40 ++)
NC(=O)c1ccc(-c2c(OCc3ccc(Cl)cc3)ccc(-c3cc(C(F)(F)F)[nH]n3)c2O)cc1	Potency code	++ (30-40 ++)
CCc1ccc(Oc2c[nH]nc2-c2ccc(OCCc3ccc(Cl)cc3)cc2O)cc1	Potency code	+ (>40 +)

Next:
Incoming: Requested read-out: Potency code. Entry: Cn1nc(-c2ccc(OCc3ccc(Cl)cc3)c(-c3ccc(Cl)c(C(F)(F)F)c3)c2O)cc1C(F)(F)F
Outgoing: + (>40 +)

* * *

Experiment: Potency code of Table 2 (assay not stated)
result type: Potency code

// worked examples, Potency code included
compound	Potency code
Cn1nc(-c2ccc(OCc3ccc(Cl)cc3)c(-c3cncc(C#N)c3)c2O)cc1C(F)(F)F [NUCC-0201633]	+ (>40 +)
CCc1ccc(Oc2c(-c3ccc(OCc4ccc(Cl)cc4)cc3OC)nn(C)c2C(F)(F)F)cc1 [NUCC-0196352]	+ (>40 +)
Cn1nc(-c2ccc(OCc3ccc(Cl)cc3)c(-c3cccnc3)c2O)cc1C(F)(F)F [NUCC-0196364]	+ (>40 +)
CN/N=C(/C)c1ccc(-c2c(OCc3ccc(Cl)cc3)ccc(-c3cc(C(F)(F)F)[nH]n3)c2O)cc1 [NUCC-0198395]	+ (>40 +)
CCCCOc1ccc(-c2cc(C(F)(F)F)nn2C)c(O)c1-c1cncc(C(F)(F)F)c1 [NUCC-0201204]	+++ (10-30 +++)

Incoming: Requested read-out: Potency code. Entry: Cc1ccc(C)c(Oc2c[nH]nc2-c2ccc(OCc3ccc(Cl)cc3)cc2O)c1 [NUCC-0196284]
Outgoing: + (>40 +)

Incoming: Cool, now COc1ccc(-c2c(-c3ccc(OCc4ccc(Cl)cc4)cc3O)noc2C(F)(F)F)cc1OC [NUCC-0196306]
Outgoing: + (>40 +)

Incoming: Cool, now Oc1c(-c2cc(C(F)(F)F)[nH]n2)ccc(OCc2ccc(Cl)cc2)c1-c1cccc(C(F)(F)F)c1 [NUCC-0200730]
Outgoing: + (>40 +)

Incoming: Cool, now CCc1ccc(Oc2c(-c3ccc(OCc4ccc(Cl)c(Cl)c4)cc3O)n[nH]c2C(F)(F)F)cc1 [NUCC-0196355]
Outgoing: +++ (10-30 +++)

* * *

Assay: Potency code of Table 2 (assay not stated)
result type: Potency code

compound	experimental result
Cn1nc(-c2ccc(OCc3ccc(Cl)cc3)c(-c3ccc(C#N)cc3)c2O)cc1C(F)(F)F [NUCC-0198393]	+ (>40 +)
Cn1nc(-c2ccc(N)cc2O)cc1C(F)(F)F [NUCC-0200498]	+ (>40 +)
CN/N=C(/C)c1ccc(-c2c(OCc3ccc(Cl)cc3)ccc(-c3cc(C(F)(F)F)nn3C)c2O)cc1 [NUCC-0198396]	+ (>40 +)

* * *

Assay: Potency code of Table 2 (assay not stated)
result type: Potency code

// worked examples, Potency code included
smiles string	Potency code
Cn1nc(C(F)(F)F)cc1-c1ccc(OCc2ccc(Cl)cc2)c(-c2cncc(C(F)(F)F)c2)c1O	+ (>40 +)
Cn1nc(C(F)(F)F)cc1-c1ccc(OCc2ccc(Cl)cc2)c(-c2cccc(C#N)c2)c1O	++++ (<10 ++++)
COC(=O)c1cc(-c2ccc(OCc3ccc(Cl)cc3)c(-c3cc(C(F)(F)F)cc(C(F)(F)F)c3)c2O)nn1C	+ (>40 +)
Cn1nc(-c2ccc(OCc3ccc(Cl)cc3)c(-c3cncc(C(F)(F)F)c3)c2O)cc1C(F)(F)F	+ (>40 +)
Cn1nc(C(F)(F)F)cc1-c1ccc(OCCCN)c(-c2ccc(Cl)c(C(F)(F)F)c2)c1O	+ (>40 +)

Incoming: Requested read-out: Potency code. Entry: Oc1c(-c2cc(C(F)(F)F)[nH]n2)ccc(OCc2ccc(Cl)cc2)c1-c1ccc(F)c(C(F)(F)F)c1
Outgoing: + (>40 +)

Incoming: Cool, now Oc1c(-c2cc(C(F)(F)F)[nH]n2)ccc(OCc2ccc(Cl)cc2)c1-c1ccc(Cl)c(C(F)(F)F)c1
Outgoing: + (>40 +)

Incoming: Cool, now Oc1c(-c2cc(C(F)(F)F)[nH]n2)ccc(OCc2ccc(Cl)cc2)c1C1CC1
Outgoing: + (>40 +)

Incoming: Cool, now Cn1nc(-c2ccc(OCc3ccc(Cl)cc3)c(-c3ccc(C(F)(F)F)cc3)c2O)cc1C(F)(F)F
Outgoing: + (>40 +)

Incoming: Cool, now Oc1c(-c2cc(C(F)(F)F)n[nH]2)ccc(OCCc2ccc(Cl)cc2)c1-c1cc(C(F)(F)F)cc(C(F)(F)F)c1
Outgoing: ++++ (<10 ++++)

Just for reference, patent US20200392116A1 is where these values come from.
